Experiment: physchem
Details: 22 °C, water, thermodynamic from solid
QUANTITY KIND: solubility (mM)

molecule="O=P(O)(O)C(O)(Cc1cccnc1)P(=O)(O)O [Example 2]" numeric_value=255
